meta.source: the RNAGym collection of RNA variant scans (doi:10.7554/elife.80360)

B1: Twister Ribozyme (parent)
chain: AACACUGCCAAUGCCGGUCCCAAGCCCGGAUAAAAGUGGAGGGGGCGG

# Variants of: B1
# protocolText: self-cleavage, relative activity (ratio to wild type); higher = more cleavage; co-transcriptional
I would appreciate it if you labelled entries TRUE when self-cleavage is 0.1 or higher, otherwise FALSE.

> print(dat)
    variantcode  classification
 1     G7U U31C            TRUE
 2    G17C G29C           FALSE
 3      C3G C5U            TRUE
 4    A32G G44A            TRUE
 5    G16U C20A            TRUE
 6    C15U G39U            TRUE
 7    C25G A35C            TRUE
 8    U18A C46G            TRUE
 9    U12G A35C            TRUE
10    G24U A35G           FALSE
11     C8A G48A            TRUE
12    G42C G48C            TRUE
13    A10U G28A            TRUE
14     A2U C21G           FALSE
15    C14U G42A            TRUE
16      G7C C9A           FALSE
17    C26U U37C            TRUE
18     C3U G39C           FALSE
19    G16C G24U           FALSE
20    U12A C26U            TRUE
21    C25G U37G            TRUE
22    C27A A32U            TRUE
23     C9G A33C            TRUE
24    G17A U18C            TRUE
25    G41U G43A            TRUE
26    A23C A34C            TRUE
27    G16A C27U            TRUE
28    C14U C19U            TRUE
29     U6G A34U            TRUE
30    G16U A40C            TRUE
31     C9U A22U            TRUE
32    G24C G41C           FALSE
33     U6A G16C            TRUE
34    G24C C25A            TRUE
35     A1U G42A           FALSE
36    G17C G39U           FALSE
37    C14U C15U            TRUE
38    C20U G38C            TRUE
39    C20G A23G           FALSE
40    U37A G38A            TRUE
41    C27A G38U            TRUE
42    G17A A23U            TRUE
43     C3A G38C            TRUE
44    U12G U37C            TRUE
45    C15U A32U            TRUE
46    A30G A32C            TRUE
47      A1U C5G           FALSE
48     C9U G24U           FALSE
49    C19G U31C            TRUE
50    G29U A40G            TRUE
51    G29C U31A            TRUE
52    C19U A35G            TRUE
53     U6G A23C           FALSE
54    A40C G48C            TRUE
55     C3G G45U            TRUE
56    A10G U18C            TRUE
57     A4U A23C           FALSE
58         A33C            TRUE
59     C8U C27U            TRUE
60     G7U A23G           FALSE
61    A11C C14G            TRUE
62     A2C A30C           FALSE
63     A2G U31G            TRUE
64    C27U A33G            TRUE
65    G28C C46U            TRUE
66     C9G C20G           FALSE
67    A23G A34G            TRUE
68     G7A G38U            TRUE
69    G17C U18A           FALSE
